# System: SW-620 colon
# measurementNotes: NCI-60 one-dose screen, 48 h (100 = growth as untreated, 0 = no growth, -100 = all killed)
# testParameters: 10 µM unless noted
About 83,000 compounds went through this panel and 20% of them were active in at least one assay; those are over-represented in the sample as a whole. Activity calls are given as the source filed them. Rule for the calls: active = growth percent below 10; inactive = the rest.
growth reference

// below: answered molecules
{"molecule": "COc1cc[c]([Hg][Cl])cc1", "assayValue": "18.9% (inactive)"}
{"molecule": "O=c1[nH]c2cc(Cl)ccc2n1C1CCN(CCCC(c2ccc(F)cc2)c2ccc(F)cc2)CC1", "assayValue": "-80.7% (active)"}
{"molecule": "CCOC(=O)/C(C#N)=C/c1ccc(N(CCCl)CCCl)cc1", "assayValue": "87.3% (inactive)"}
{"molecule": "CC(C)[C@]12O[C@H]1[C@@H]1O[C@]13[C@]1(O[C@H]1C[C@H]1C4=C(CC[C@@]13C)C(=O)OC4)[C@@H]2OC(=O)OC(C)(C)C", "assayValue": "1.09% (active)"}

Task: growth lookup needed for CSc1ccccc1NP1(=O)OCC(C)([N+](=O)[O-])CO1 (stereo not given) , thanks.
Output: 101% (inactive)

* * *

# Test system: HL-60(TB) leukemia
# measurementNotes: NCI-60 one-dose screen, 48 h
# testParameters: 10 µM unless noted
This is part of a sample that, as a whole, favours compounds with a hit. Of some 83,000 tested, about 20% had one in any assay. Active and inactive are the calls of the source. The calls were made as follows: active = growth percent below 10; inactive = the rest.
Please reply with one of these outcomes: 1.0 for active, 0.0 for inactive

{"molecule": "C=CCn1c(SCC(=O)Nc2ccc(C(=O)/C=C/c3cc(OC)c(OC)c(OC)c3)cc2)nnc1-c1cc(OC)c(OC)c(OC)c1", "system": "HL-60(TB) leukemia", "categoryLabel": 0.0}
{"molecule": "O=C1CCC(c2c(O)cc(O)c3c(=O)c(O)c(-c4ccc(O)c(O)c4)oc23)N1 (stereo not drawn)", "system": "HL-60(TB) leukemia", "categoryLabel": 0.0}
{"molecule": "CCN(CC)CC(O)COc1c(Br)c(Br)c(Br)c2c1OC(C)(C)C2 (stereo not drawn)", "system": "HL-60(TB) leukemia", "categoryLabel": 0.0}
{"molecule": "C#CCOc1ccc2ncnc(Nc3cccc(NC(=O)CCl)c3)c2c1", "system": "HL-60(TB) leukemia", "categoryLabel": 0.0}
{"molecule": "Cc1ccc(S(=O)(=O)Nc2ccc(-c3cc(-c4cccc(F)c4)c(C#N)c(=O)[nH]3)cc2)cc1", "system": "HL-60(TB) leukemia", "categoryLabel": 0.0}
{"molecule": "O=S(=O)(N=C1C(Cl)=C(Cl)C(=NS(=O)(=O)c2ccccc2)C(Cl)=C1Cl)c1ccccc1", "system": "HL-60(TB) leukemia", "categoryLabel": 0.0}

Task: Look up the recorded call for `O=C(/C=C\c1ccc(OCCCCCC[P+](c2ccccc2)(c2ccccc2)c2ccccc2)cc1)c1ccc2c(c1)OCCO2` in this test.
Output: 1.0

Task: Look up the recorded call for `COc1ccc(-c2nnc(N3CCN(C(=O)CN4CCN(c5ccccc5)CC4)CC3)nc2-c2ccc(OC)cc2)cc1` in this test.
Output: 1.0

Task: Look up the recorded call for `CCOC(=O)N1C2CCC(C2)N1C(=O)OCC` in this test.
Output: 0.0

Task: Look up the recorded call for `COc1cccc(/C=N/N=C(N)N)c1` in this test.
Output: 0.0

Task: Look up the recorded call for `CN(C)c1ccc(/C=C/c2c(F)cccc2F)cc1` in this test.
Output: 0.0

Task: Look up the recorded call for `CCCCCCC(C(=O)OCC)(C(=O)OCC)C1CCCCCC1` in this test.
Output: 0.0

Task: Look up the recorded call for CC(C)CCC[C@@H](C)[C@H]1CCC2C3=CCC4C(=O)C=CC(=O)C4C3CC[C@@]21C (stereo partly drawn) in this test.
Output: 1.0

Task: Look up the recorded call for `O=c1ccc2cc3ccccc3cc2[nH]1` in this test.
Output: 0.0

Task: Look up the recorded call for CC(CNC(Cc1ccccc1)c1ccccc1)NC(Cc1ccccc1)c1ccccc1 (stereo not drawn) in this test.
Output: 0.0
